tested on: HT-29 cells; assay: Hoechst/propidium iodide cell death assay in HT-29; assay type: cell-based, human; conditions: Homo sapiens, HT-29, 24 h, 20 µM, 24 h; read-out: Percentage of cell death % 24h HT-29
Counter-ions that a name gives are not always drawn.
We use 2% as the dividing line for cytotoxicity at 20 µM: on or above the line is rule met, below is rule not met.

>>> group("CC[C@H]1[C@@H](O)[C@@H]2[C@H](CC[C@]3(C)[C@@H]([C@H](C)CCC(=O)O)CC[C@@H]23)[C@@]2(C)CC[C@@H](O)C[C@@H]12")
"rule not met"
>>> group("C=CC[C@@H]1/C=C(\\C)C[C@H](C)C[C@H](OC)[C@H]2O[C@@](O)(C(=O)C(=O)N3CCCC[C@H]3C(=O)O[C@H](/C(C)=C/[C@@H]3CC[C@@H](O)[C@H](OC)C3)[C@H](C)[C@@H](O)CC1=O)[C@H](C)C[C@@H]2OC")
"rule not met"
>>> group("CSc1ccc2c(c1)N(CCC1CCCCN1C)c1ccccc1S2 (centres unmarked) [Thioridazine HCl]")
"rule not met"
>>> group("CCc1cc(/C(C)=N/OCc2ccc(C3CCCCC3)c(C(F)(F)F)c2)ccc1CN1CC(C(=O)O)C1 [BAF312 (Siponimod), Siponimod]")
"rule not met"
>>> group("C#C[C@]1(O)CC[C@H]2[C@@H]3CCC4=CCCC[C@@H]4[C@H]3C(=C)C[C@@]21CC")
"rule not met"
>>> group("Clc1ccccc1C(c1ccccc1)(c1ccccc1)n1ccnc1")
"rule not met"
>>> group("COc1cc(C(=O)NS(=O)(=O)c2ccccc2C)ccc1Cc1cn(C)c2ccc(NC(=O)OC3CCCC3)cc12")
"rule not met"
>>> group("CCCCCCCCCCCC1=C(O)C(=O)C=C(O)C1=O")
"rule met"
>>> group("C[C@H](CCC(=O)O)[C@H]1CC[C@H]2[C@@H]3CC[C@@H]4C[C@H](O)CC[C@]4(C)[C@H]3CC[C@]12C")
"rule not met"
>>> group("CC(C)OC(=O)CCC/C=C\\C[C@@H]1[C@@H](CC[C@@H](O)CCc2ccccc2)[C@H](O)C[C@@H]1O")
"rule not met"
>>> group("CCOc1nc2cccc(C(=O)OC(C)OC(=O)OC3CCCCC3)c2n1Cc1ccc(-c2ccccc2-c2nnn[nH]2)cc1 (centres unmarked)")
"rule not met"
>>> group("Clc1ccc(CSC(Cn2ccnc2)c2ccc(Cl)cc2Cl)cc1 (centres unmarked) [Sulconazole Nitrate]")
"rule met"
>>> group("Clc1ccc(COC(Cn2ccnc2)c2ccc(Cl)cc2Cl)c(Cl)c1 (centres unmarked)")
"rule met"
>>> group("CCCCCCCCCCCC[N+](C)(C)CCOc1ccccc1 [Domiphen Bromide]")
"rule met"

----------
molecular target: 14-3-3ζ:BAD-112-136F interactions (Homo sapiens); construct: expressed in transfected cells; host or cells: NIH-3T3 fibroblasts, bi-directional pBI-CMV1 plasmid; test: BRET sensor screen for disruption of 14-3-3ζ-Rluc8:BAD-112-136F-mCitrine in living NIH-3T3 cells; format: cell-based, murine; conditions: NIH3T3, 3 h, NIH-3T3 expressing BRET sensor; 20 µM, 3 h; read-out: BRET reduction on NIH-3T3
Sequence (P63104 whole entry): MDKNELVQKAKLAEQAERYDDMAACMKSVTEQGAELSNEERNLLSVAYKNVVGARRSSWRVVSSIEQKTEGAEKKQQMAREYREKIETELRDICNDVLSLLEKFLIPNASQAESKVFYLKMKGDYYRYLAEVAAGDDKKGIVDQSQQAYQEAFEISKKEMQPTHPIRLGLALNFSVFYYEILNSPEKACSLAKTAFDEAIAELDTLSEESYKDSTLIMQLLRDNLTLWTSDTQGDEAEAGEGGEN
Structures can show the parent of a compound that is named as a salt.
quantity: inhibition at 20 µM

>>> measured_value("CC[C@H]1[C@@H](O)[C@@H]2[C@H](CC[C@]3(C)[C@@H]([C@H](C)CCC(=O)O)CC[C@@H]23)[C@@]2(C)CC[C@@H](O)C[C@@H]12")
"36.4%"
>>> measured_value("O=C1Nc2ccc(Cl)cc2[C@@](C#CC2CC2)(C(F)(F)F)O1")
"30.3%"
>>> measured_value("COc1cc2nccc(Oc3ccc(NC(=O)Nc4cc(C)on4)c(Cl)c3)c2cc1OC")
"26.5%"
>>> measured_value("Clc1ccc(CCC(Cn2ccnc2)Sc2c(Cl)cccc2Cl)cc1 (stereo not drawn) [Butoconazole nitrate]")
"45.1%"
>>> measured_value("O=C(NC1CCN(CCCCC2(C(=O)NCC(F)(F)F)c3ccccc3-c3ccccc32)CC1)c1ccccc1-c1ccc(C(F)(F)F)cc1 [Lomitapide]")
"40.8%"
>>> measured_value("COc1cc2ncnc(Nc3ccc(F)c(Cl)c3)c2cc1NC(=O)/C=C/CN1CCCCC1")
"26.7%"
>>> measured_value("C[C@H](CCC(=O)O)[C@H]1CC[C@H]2[C@@H]3CC[C@@H]4C[C@H](O)CC[C@]4(C)[C@H]3CC[C@]12C")
"40.1%"
>>> measured_value("CCCCc1oc2ccc(NS(C)(=O)=O)cc2c1C(=O)c1ccc(OCCCN(CCCC)CCCC)cc1")
"50.4%"
>>> measured_value("NC(=O)N1CCC(CC(=O)N2CCC([C@H]3c4ncc(Br)cc4CCc4cc(Cl)cc(Br)c43)CC2)CC1")
"40.6%"
>>> measured_value("O=C1c2c(O)ccc(O)c2C(=O)c2c(NCCNCCO)ccc(NCCNCCO)c21 [Mitoxantrone HCl]")
"25.5%"
>>> measured_value("CCN(CC)CCOc1ccc(C(=C(Cl)c2ccccc2)c2ccccc2)cc1 [Clomiphene citrate]")
"38.2%"
>>> measured_value("Cn1ncc(Cl)c1-c1cc(C(=O)N[C@H](CN)Cc2cccc(F)c2)sc1Cl")
"27.8%"
>>> measured_value("Clc1ccc(C(Cn2ccnc2)OCc2c(Cl)cccc2Cl)c(Cl)c1 (stereo not drawn) [Isoconazole nitrate]")
"45.1%"
>>> measured_value("CC1(C)[C@@H](O)CC[C@]2(C)[C@H]3C(=O)C=C4[C@@H]5C[C@@](C)(C(=O)O)CC[C@]5(C)CC[C@@]4(C)[C@]3(C)CC[C@@H]12")
"42.9%"
>>> measured_value("CC(C)OC(=O)CCC/C=C\\C[C@@H]1[C@@H](CC[C@@H](O)CCc2ccccc2)[C@H](O)C[C@@H]1O")
"29.5%"

----------
test system: NIH-3T3 cells; assay: Hoechst/propidium iodide cell death assay in NIH-3T3; type: cell-based; conditions: Mus musculus, NIH3T3, 24 h, 20 µM, 24 h; read-out: Percentage of cell death % 24h NIH3t3
Structures can show the parent of a compound that is named as a salt.
# note: exactly 2% is not below, so it is class 0; use class 1 for cytotoxicity at 20 µM strictly under it

>>> group("C=CCc1ccc(O)c(-c2ccc(O)c(CC=C)c2)c1")
"class 0"
>>> group("CCCCCCCCCCCC1=C(O)C(=O)C=C(O)C1=O")
"class 0"
>>> group("CCCCc1oc2ccc(NS(C)(=O)=O)cc2c1C(=O)c1ccc(OCCCN(CCCC)CCCC)cc1")
"class 0"
>>> group("CCc1c(Cl)c(O)c(Cl)c(O)c1C(=O)O[C@H]1[C@H](O)[C@H](OC)[C@H](OC/C2=C\\C=C\\C[C@H](O)/C(C)=C/[C@H](CC)[C@@H](O[C@@H]3OC(C)(C)[C@@H](OC(=O)C(C)C)[C@H](O)[C@@H]3O)/C(C)=C/C(C)=C/C[C@@H]([C@@H](C)O)OC2=O)O[C@@H]1C")
"class 1"
>>> group("C=C1/C(=C\\C=C2/CCC[C@]3(C)[C@@H]([C@H](C)CCCC(C)(C)O)CC[C@@H]23)C[C@@H](O)C[C@@H]1O")
"class 1"
>>> group("CC[C@H]1[C@@H](O)[C@@H]2[C@H](CC[C@]3(C)[C@@H]([C@H](C)CCC(=O)O)CC[C@@H]23)[C@@]2(C)CC[C@@H](O)C[C@@H]12")
"class 1"
>>> group("C=C[C@@H]1C[C@]1(NC(=O)[C@@H]1C[C@@H]2CN1C(=O)[C@H](C(C)(C)C)NC(=O)O[C@@H]1C[C@H]1CCCCCc1nc3ccc(OC)cc3nc1O2)C(=O)NS(=O)(=O)C1CC1")
"class 1"
>>> group("CCCCCCCCCCCC[N+](C)(C)CCOc1ccccc1 [Domiphen Bromide]")
"class 0"
>>> group("CC/C(=C(\\c1ccccc1)c1ccc(OCCN(C)C)cc1)c1ccccc1 [Tamoxifen Citrate]")
"class 0"
>>> group("C(=C\\c1ccccc1)/CN1CCN(C(c2ccccc2)c2ccccc2)CC1")
"class 1"
>>> group("O=c1[nH]c2ccccc2n1C1CCN(CCCC(c2ccc(F)cc2)c2ccc(F)cc2)CC1 [Pimozide]")
"class 0"
>>> group("Clc1ccc(C(Cn2ccnc2)OCc2ccc(Sc3ccccc3)cc2)c(Cl)c1 (centres unmarked) [Fenticonazole Nitrate]")
"class 1"
>>> group("Clc1ccc(C(c2ccccc2Cl)C(Cl)Cl)cc1 (centres unmarked)")
"class 0"
>>> group("Clc1ccccc1C(c1ccccc1)(c1ccccc1)n1ccnc1")
"class 1"

----------
system: Caco-2 cells; assay type: cell-based; conditions: 20 µM, 24 h
Where a name gives a salt, the structure may show the parent alone. Numbered stars: 1 amine (or outer) side, 2 acyl side, 3 side chain; on linkers, the order of the positions; unused ones are H or OH. Bridge positions count the residues as written; N and C are the ends. Square brackets hold non-standard residues; d marks the D form. Peptide text beside a SMILES is read from it. * marks the point of attachment. pTerphenylCO(4''-OnC5H11) = CCCCCOc1ccc(-c2ccc(-c3ccc(C(=O)*)cc3)cc2)cc1; Orn(4R-OH,5R-OH) = O=C([C@H](C[C@@H](O)[C@@H](O)N[*:3])N[*:1])[*:2]; hTyr(3S-OH,4S-OH) = N[C@H](C(=O)O)[C@H](O)[C@@H](O)c1ccc(O)cc1; Pro(3S-OH,4S-Me) = C[C@H]1CN[C@H](C(=O)O)[C@H]1O; Hyp = O=C(O)[C@@H]1C[C@@H](O)CN1
We use 10% as the dividing line for Percentage of cell death % 24h CACO-2: on or above the line is MET, below is NOT MET.

>>> group("CCCCCOc1ccc(-c2ccc(-c3ccc(C(=O)N[C@H]4C[C@@H](O)[C@@H](O)NC(=O)[C@@H]5[C@@H](O)[C@@H](C)CN5C(=O)[C@H]([C@@H](C)O)NC(=O)[C@H]([C@H](O)[C@@H](O)c5ccc(O)cc5)NC(=O)[C@@H]5C[C@@H](O)CN5C(=O)[C@H]([C@@H](C)O)NC4=O)cc3)cc2)cc1 [Anidulafungin] ({pTerphenylCO(4''-OnC5H11)}-[Orn(4R-OH,5R-OH)]T[Hyp][hTyr(3S-OH,4S-OH)]T[Pro(3S-OH,4S-Me)]; lactam 1-C)")
"NOT MET"
>>> group("CCCCCCCCCCCCCCCC[N+](C)(C)C [Cetrimonium Bromide (CTAB), Cetrimonium Bromide]")
"MET"
>>> group("O=C(NC1CCN(CCCCC2(C(=O)NCC(F)(F)F)c3ccccc3-c3ccccc32)CC1)c1ccccc1-c1ccc(C(F)(F)F)cc1 [Lomitapide]")
"MET"
>>> group("CCCCc1oc2ccc(NS(C)(=O)=O)cc2c1C(=O)c1ccc(OCCCN(CCCC)CCCC)cc1 [Dronedarone]")
"MET"
>>> group("CCCCc1oc2ccc(NS(C)(=O)=O)cc2c1C(=O)c1ccc(OCCCN(CCCC)CCCC)cc1 [Dronedarone HCl]")
"MET"
>>> group("C[C@@H](NCCCc1cccc(C(F)(F)F)c1)c1cccc2ccccc12 [Cinacalcet]")
"MET"
>>> group("COc1ccc2c(O[C@@H]3C[C@H]4C(=O)N[C@]5(C(=O)NS(=O)(=O)C6CC6)C[C@H]5/C=C\\CCCCN(C)C(=O)[C@@H]4C3)cc(-c3nc(C(C)C)cs3)nc2c1C")
"NOT MET"
>>> group("CC(C)(C)C#Cc1cc(N(C(=O)[C@H]2CC[C@H](C)CC2)[C@H]2CC[C@H](O)CC2)c(C(=O)O)s1")
"NOT MET"
>>> group("C[C@H](CCC(=O)O)[C@H]1CC[C@H]2[C@@H]3CC[C@@H]4C[C@H](O)CC[C@]4(C)[C@H]3CC[C@]12C")
"NOT MET"
>>> group("CC(C)(C)c1cc(C(C)(C)C)c(NC(=O)c2c[nH]c3ccccc3c2=O)cc1O")
"MET"
>>> group("CC(C)OC(=O)CCC/C=C\\C[C@@H]1[C@@H](CC[C@@H](O)CCc2ccccc2)[C@H](O)C[C@@H]1O")
"NOT MET"
>>> group("Cc1ccc(Sc2ccccc2N2CCNCC2)c(C)c1")
"MET"
>>> group("C=CCc1ccc(O)c(-c2ccc(O)c(CC=C)c2)c1")
"MET"
>>> group("Clc1ccc(CO/N=C(\\Cn2ccnc2)c2ccc(Cl)cc2Cl)c(Cl)c1.O=[N+]([O-])O [Oxiconazole (nitrate)]")
"NOT MET"
>>> group("CCc1cc(/C(C)=N/OCc2ccc(C3CCCCC3)c(C(F)(F)F)c2)ccc1CN1CC(C(=O)O)C1 [BAF312 (Siponimod), Siponimod]")
"NOT MET"
>>> group("CCCCCCCCCCCCCCCC[n+]1ccccc1 [Cetylpyridinium Chloride]")
"MET"
>>> group("Clc1ccc(C(Cn2ccnc2)OCc2c(Cl)cccc2Cl)c(Cl)c1 (centres unmarked) [Isoconazole nitrate]")
"NOT MET"
>>> group("CC(C)Oc1ccc(-c2nc(-c3cccc4c3CC[C@@H]4NCCO)no2)cc1C#N [Ozanimod (RPC1063), Ozanimod]")
"MET"
>>> group("CC1=C(C(=O)OC(C)C)C(c2cccc([N+](=O)[O-])c2)C(C(=O)OC2CN(C(c3ccccc3)c3ccccc3)C2)=C(N)N1 (centres unmarked)")
"NOT MET"
>>> group("Cc1cc(Nc2cc(CN3CCOCC3)c3nc(C)c(Cc4ccc(Cl)cc4F)n3n2)n[nH]1")
"MET"
>>> group("CCCSc1nc(N[C@@H]2C[C@H]2c2ccc(F)c(F)c2)c2nnn([C@@H]3C[C@H](OCCO)[C@@H](O)[C@H]3O)c2n1")
"NOT MET"
>>> group("CCCCCCCCCCCC[N+](C)(C)CCOc1ccccc1 [Domiphen Bromide]")
"MET"
>>> group("Oc1cc(Cl)ccc1Oc1ccc(Cl)cc1Cl")
"MET"
>>> group("C=C[C@@H]1C[C@]1(NC(=O)[C@@H]1C[C@@H]2CN1C(=O)[C@H](C(C)(C)C)NC(=O)O[C@@H]1C[C@H]1CCCCCc1nc3ccc(OC)cc3nc1O2)C(=O)NS(=O)(=O)C1CC1")
"NOT MET"
>>> group("Cc1ccc(C(=O)Nc2ccc(CN3CCN(C)CC3)c(C(F)(F)F)c2)cc1C#Cc1cnc2cccnn12")
"MET"
>>> group("C=CCc1ccc(O)c(-c2cc(CC=C)ccc2O)c1")
"MET"
